Target System: T1, Recombinant Human GFRα-1/GDNF Rα-1 Fc Chimera (human, UniProt P56159 25-429)
T1 construct: Purchased Fc chimera; It was captured on protein A in Biacore and coated on the plate in ELISA; also called GFRα1-Fc; recombinant human GFRα1-Fc chimera, carrier-free; not shown: Fc part of a purchased Fc chimera
T1 sequence (looked up): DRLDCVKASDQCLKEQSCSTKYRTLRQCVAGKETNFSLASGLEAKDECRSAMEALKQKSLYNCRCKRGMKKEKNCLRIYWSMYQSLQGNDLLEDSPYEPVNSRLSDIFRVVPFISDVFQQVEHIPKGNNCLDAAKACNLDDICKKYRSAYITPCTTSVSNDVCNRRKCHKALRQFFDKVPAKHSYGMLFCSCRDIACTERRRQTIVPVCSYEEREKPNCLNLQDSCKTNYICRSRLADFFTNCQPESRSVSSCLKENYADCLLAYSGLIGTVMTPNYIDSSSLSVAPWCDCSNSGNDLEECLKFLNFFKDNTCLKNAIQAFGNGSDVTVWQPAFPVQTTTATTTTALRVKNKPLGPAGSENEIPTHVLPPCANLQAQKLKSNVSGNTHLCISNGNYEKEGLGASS
Procedure Details: SPR (Biacore 2000), GFRα1-Fc captured on protein A, GDNFv as analyte, 1:1 Langmuir, 25 C
Protocol: A Biacore® 2000 instrument is used to measure the binding kinetics of GDNFv to human and rat GDNF family receptors (GFRα1 and GFRα2). Measurements are performed at 25° C. Samples are dissolved in HBS-EP buffer (150 mM sodium chloride, 3 mM EDTA, 0.005% (w/v) surfactant P-20, pH 7.4). […] Binding is evaluated using multiple cycles. […] Association and dissociation rates for each cycle are evaluated using a “1:1 (Langmuir) binding” model in the BIAevaluation software, version 4.1.
Value Type: koff
I'd appreciate it if you included the unit after the number.

Entry E. Coli-Δ31-GDNF (SEQ ID NO: 8) (ligand, The NdeI start codon encodes a Met before R32; also called Delta-31 GDNF; Variant 1) RGQRGKNRGCVLTAIHLNVTDLGLGYETKEELIFRYCSGSCDAAETTYDKILKNLSRNRRLVSDKVGQACCRPIAFDDDLSFLDDNLVYHILRKHSAKRCGCI : reported koff = ?
0.00017 s⁻¹

Entry CHO-Δ31-GDNF (SEQ ID NO: 8) (ligand, N-glycosylated at N49 (numbering of mature GDNF), Expressed in CHO cells; also called CHO-Δ31-GDNFv; WT CHO Δ31-GDNFv) RGQRGKNRGCVLTAIHLNVTDLGLGYETKEELIFRYCSGSCDAAETTYDKILKNLSRNRRLVSDKVGQACCRPIAFDDDLSFLDDNLVYHILRKHSAKRCGCI : reported koff = ?
9e-05 s⁻¹

Entry E. coli-Δ31-N38Q-D95E-GDNF (SEQ ID NO: 9) (ligand, also called GDNF variant 2; clone D9) RGQRGKQRGCVLTAIHLNVTDLGLGYETKEELIFRYCSGSCDAAETTYDKILKNLSRNRRLVSEKVGQACCRPIAFDDDLSFLDDNLVYHILRKHSAKRCGCI : reported koff = ?
0.00016 s⁻¹

Entry E. Coli-Δ31-N38Q-K84A-R88K-R90K-D95E-GDNF (SEQ ID NO: 12) (ligand, also called Δ31-N38Q-KAKKE; GDNF variant 3) RGQRGKQRGCVLTAIHLNVTDLGLGYETKEELIFRYCSGSCDAAETTYDKILANLSKNKRLVSEKVGQACCRPIAFDDDLSFLDDNLVYHILRKHSAKRCGCI : reported koff = ?
0.00016 s⁻¹
